Values compiled from paper PMC10267556.

system-tested: T1, Spike (BA.1) (SARS-CoV-2, Omicron BA.1, strain)
T1 construct: source: bought: Sino Biological
assay: SPR
condition-info: both partners purified
quantity-kind: Kd (nM)
One number for each entry, in nM.

Any idea what Kd was measured for TH272 (antibody, V domains shown, IgG1 (D2:p3)) VH: QITLKESGPTLVKPTQTLTLTCTFSGFSLSTGGVSVGWIRQPPGKALEWLALIYWDDDKRYSPSLESRLTITKDTSKNLVVLTLTNMDPVDTATYYCAHKTIPTIFDYWGQGTLVTVSS VL: QSALTQPASVSGSPGQSITISCTATSSDVGAYQYVSWYQQYPGKAPKLMIYEVSKRPSGVSNRFSGSKSGNTASLTISGLQAEDDAYYYCNSYTTSSVVFGGGTKLTVL ? 1.33
